src = ChEMBL document CHEMBL4028802

Organism: Homo sapiens
Assay: Liver toxicity in human assessed as induction of drug-induced liver injury by measuring severity class index; note: key of the grades not given here
MEASURED_ATTRIBUTE: DILI_severity_class

The molecule listed as COCCCOc1cc(C[C@@H](C[C@H](N)[C@@H](O)C[C@H](C(=O)NCC(C)(C)C(N)=O)C(C)C)C(C)C)ccc1OC shows DILI_severity_class equal to 0

The molecule listed as Cc1[nH]cnc1CN1CCc2c(c3ccccc3n2C)C1=O shows DILI_severity_class equal to 4

The molecule listed as C=CC1=C(C(=O)O)N2C(=O)[C@@H](NC(=O)/C(=N\O)c3csc(N)n3)[C@H]2SC1 shows DILI_severity_class equal to 7

The molecule listed as Nc1nc(O)c2ncn(COC(CO)CO)c2n1 shows DILI_severity_class equal to 7

The molecule listed as CCC(=O)C(CC(C)N(C)C)(c1ccccc1)c1ccccc1 (stereo not drawn) shows DILI_severity_class equal to 3
